- TARGET_ENTITY: panel of more than 300 wild-type and mutant kinases (313 kinase panel) (Homo sapiens, UniProt P10721, D816V)
- Sequence (P10721 26-976 D816V): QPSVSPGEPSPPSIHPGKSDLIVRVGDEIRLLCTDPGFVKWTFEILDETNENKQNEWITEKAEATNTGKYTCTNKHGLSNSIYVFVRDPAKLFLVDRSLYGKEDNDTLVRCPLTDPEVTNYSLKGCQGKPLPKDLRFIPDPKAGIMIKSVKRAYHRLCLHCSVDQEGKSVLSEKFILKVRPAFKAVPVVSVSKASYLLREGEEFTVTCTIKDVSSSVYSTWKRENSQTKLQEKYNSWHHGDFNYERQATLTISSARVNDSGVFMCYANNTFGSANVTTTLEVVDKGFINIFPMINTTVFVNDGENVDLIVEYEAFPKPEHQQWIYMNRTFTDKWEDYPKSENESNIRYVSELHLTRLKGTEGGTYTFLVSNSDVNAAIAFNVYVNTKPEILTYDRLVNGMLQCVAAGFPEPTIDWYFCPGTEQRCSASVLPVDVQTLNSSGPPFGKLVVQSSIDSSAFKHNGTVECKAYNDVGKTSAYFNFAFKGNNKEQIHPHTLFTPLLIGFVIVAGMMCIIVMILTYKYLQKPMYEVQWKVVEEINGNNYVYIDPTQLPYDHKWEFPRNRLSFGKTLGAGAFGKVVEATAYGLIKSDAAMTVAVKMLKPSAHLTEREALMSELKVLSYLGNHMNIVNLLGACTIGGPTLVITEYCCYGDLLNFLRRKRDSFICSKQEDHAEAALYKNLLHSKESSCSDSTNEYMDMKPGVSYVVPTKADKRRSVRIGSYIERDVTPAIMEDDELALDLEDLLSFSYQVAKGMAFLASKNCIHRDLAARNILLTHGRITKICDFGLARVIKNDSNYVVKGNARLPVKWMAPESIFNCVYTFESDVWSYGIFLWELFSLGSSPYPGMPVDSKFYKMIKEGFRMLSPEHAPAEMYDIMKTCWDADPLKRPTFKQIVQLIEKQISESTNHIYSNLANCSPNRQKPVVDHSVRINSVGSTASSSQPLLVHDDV
- PROTOCOL_NOTES: Kinase profiling in a biochemical assay panel (mobility shift assays and ELISA), %-inhibition at 1 μM; selectivity entropy
- SETUP_CONDITIONS: kinase KIT(D816V); compound at 1 μM
Classification field: Y = %-inhibition of KIT(D816V) at or over 40%; N = %-inhibition of KIT(D816V) under 40%.

- COMPOUND: "N#CC[C@H](C1CCCC1)n1cc(-c2ncnc3[nH]ccc23)cn1 [ruxolitinib]"
  CLASS: "N"
- COMPOUND: "Cc1ccc(Nc2nccc(N(C)c3ccc4c(C)n(C)nc4c3)n2)cc1S(N)(=O)=O [pazopanib]"
  CLASS: "Y"
- COMPOUND: "CC(=O)Nc1cccc(-n2c(=O)n(C3CC3)c(=O)c3c(Nc4ccc(I)cc4F)n(C)c(=O)c(C)c32)c1 [trametinib]"
  CLASS: "N"
- COMPOUND: "O=S(=O)(c1cccc2cnccc12)N1CCCNCC1 [fasudil]"
  CLASS: "N"
- COMPOUND: "CO[C@H]1C[C@@H]2CC[C@@H](C)[C@@](O)(O2)C(=O)C(=O)N2CCCC[C@H]2C(=O)O[C@H]([C@H](C)C[C@@H]2CC[C@@H](OCCO)[C@H](OC)C2)CC(=O)[C@H](C)/C=C(\\C)[C@@H](O)[C@@H](OC)C(=O)[C@H](C)C[C@H](C)/C=C/C=C/C=C/1C [everolimus]"
  CLASS: "N"

###

Catalogue of %-inhibition of PLK2 readings, one per entry.
- TARGET_ENTITY: panel of more than 300 wild-type and mutant kinases (313 kinase panel) (Homo sapiens, UniProt Q9NYY3)
- PROTOCOL_NOTES: Kinase profiling in a biochemical assay panel (mobility shift assays and ELISA), %-inhibition at 1 μM; selectivity entropy
- SETUP_CONDITIONS: kinase PLK2; 1 μM

- COMPOUND: "N#CC[C@H](C1CCCC1)n1cc(-c2ncnc3[nH]ccc23)cn1 [ruxolitinib]"
  UNIT_ABBREVIATION: "%"
  %-inhibition of PLK2: 10
- COMPOUND: "CCCS(=O)(=O)Nc1ccc(F)c(C(=O)c2c[nH]c3ncc(-c4ccc(Cl)cc4)cc23)c1F [vemurafenib]"
  UNIT_ABBREVIATION: "%"
  %-inhibition of PLK2: -1.85
- COMPOUND: "COc1cc2c(Nc3ccc(Br)cc3F)ncnc2cc1OCC1CCN(C)CC1 [vandetanib]"
  UNIT_ABBREVIATION: "%"
  %-inhibition of PLK2: -3
- COMPOUND: "CC(=O)Nc1cccc(-n2c(=O)n(C3CC3)c(=O)c3c(Nc4ccc(I)cc4F)n(C)c(=O)c(C)c32)c1 [trametinib]"
  UNIT_ABBREVIATION: "%"
  %-inhibition of PLK2: -1.65
- COMPOUND: "C[C@@H](Oc1cc(-c2cnn(C3CCNCC3)c2)cnc1N)c1c(Cl)ccc(F)c1Cl [crizotinib]"
  UNIT_ABBREVIATION: "%"
  %-inhibition of PLK2: 1.1
- COMPOUND: "COc1cc2nccc(Oc3ccc(NC(=O)C4(C(=O)Nc5ccc(F)cc5)CC4)cc3)c2cc1OC [cabozantinib]"
  UNIT_ABBREVIATION: "%"
  %-inhibition of PLK2: 4.4
- COMPOUND: "Cc1ccc(C(=O)Nc2ccc(CN3CCN(C)CC3)c(C(F)(F)F)c2)cc1C#Cc1cnc2cccnn12 [ponatinib]"
  UNIT_ABBREVIATION: "%"
  %-inhibition of PLK2: -1.17
- COMPOUND: "CNC(=O)c1cc(Oc2ccc(NC(=O)Nc3ccc(Cl)c(C(F)(F)F)c3)c(F)c2)ccn1 [regorafenib]"
  UNIT_ABBREVIATION: "%"
  %-inhibition of PLK2: -3.23
